Hey, just so you know, these numbers are from ChEMBL document CHEMBL3616378.

- MEASURED ON: Metabotropic glutamate receptor 3 (Homo sapiens, UniProt Q14832)
- Sequence (Q14832 whole entry): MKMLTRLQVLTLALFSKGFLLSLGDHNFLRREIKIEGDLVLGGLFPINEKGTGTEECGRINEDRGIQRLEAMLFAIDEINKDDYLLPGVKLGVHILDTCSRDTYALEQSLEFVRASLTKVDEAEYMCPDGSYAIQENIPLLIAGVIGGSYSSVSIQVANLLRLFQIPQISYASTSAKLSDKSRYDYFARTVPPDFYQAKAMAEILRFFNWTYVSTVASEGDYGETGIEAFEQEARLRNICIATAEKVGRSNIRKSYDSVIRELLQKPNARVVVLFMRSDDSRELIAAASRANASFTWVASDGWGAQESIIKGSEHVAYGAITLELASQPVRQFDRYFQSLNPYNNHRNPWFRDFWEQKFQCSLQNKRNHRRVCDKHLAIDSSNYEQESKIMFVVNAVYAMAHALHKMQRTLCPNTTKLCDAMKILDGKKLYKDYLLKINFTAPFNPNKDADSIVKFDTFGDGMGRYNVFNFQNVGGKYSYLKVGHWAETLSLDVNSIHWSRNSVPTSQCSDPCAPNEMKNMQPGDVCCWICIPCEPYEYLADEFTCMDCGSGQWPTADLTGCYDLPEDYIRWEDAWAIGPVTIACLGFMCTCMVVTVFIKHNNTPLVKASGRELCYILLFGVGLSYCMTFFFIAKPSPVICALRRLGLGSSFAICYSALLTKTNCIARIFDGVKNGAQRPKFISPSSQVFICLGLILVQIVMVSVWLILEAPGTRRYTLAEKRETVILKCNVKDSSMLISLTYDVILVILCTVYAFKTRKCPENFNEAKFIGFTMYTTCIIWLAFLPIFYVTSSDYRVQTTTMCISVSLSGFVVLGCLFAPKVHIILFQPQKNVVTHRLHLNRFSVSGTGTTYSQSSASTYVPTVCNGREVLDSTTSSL
- ASSAY EXPLANATION: Agonist activity at human recombinant mGlu3 receptor expressed in AV12 cells assessed as stimulation of Ca2+ mobilization after 1.5 hrs by FLIPR assay
- Type: functional, cell-based
MEASURED PARAMETER: EC50

- COMPOUND SMILES: "N[C@@]1(C(=O)O)C[C@H](Sc2nnc(C(F)F)[nH]2)[C@H]2[C@H](C(=O)O)[C@H]21"
  MEASURED PARAMETER: "EC50"
  DATA VALUE: "> 25 µM"
- COMPOUND SMILES: "N[C@@]1(C(=O)O)CC[C@H]2[C@H](C(=O)O)[C@H]21"
  MEASURED PARAMETER: "EC50"
  DATA VALUE: "0.14 µM"
- COMPOUND SMILES: "Nc1nnc(S[C@@H]2C[C@@](N)(C(=O)O)[C@@H]3[C@@H](C(=O)O)[C@@H]32)[nH]1"
  MEASURED PARAMETER: "EC50"
  DATA VALUE: "> 25 µM"
- COMPOUND SMILES: "N[C@@]1(C(=O)O)C[C@H](Sc2n[nH]c(C(F)(F)F)n2)[C@H]2[C@H](C(=O)O)[C@H]21"
  MEASURED PARAMETER: "EC50"
  DATA VALUE: "> 25 µM"
- COMPOUND SMILES: "N[C@@]1(C(=O)O)C[C@@H](Sc2nc[nH]n2)[C@H]2[C@H](C(=O)O)[C@H]21"
  MEASURED PARAMETER: "EC50"
  DATA VALUE: "> 25 µM"
- COMPOUND SMILES: "Cc1nnc(S[C@H]2C[C@@](N)(C(=O)O)[C@@H]3[C@@H](C(=O)O)[C@@H]32)[nH]1"
  MEASURED PARAMETER: "EC50"
  DATA VALUE: "> 25 µM"
- COMPOUND SMILES: "N[C@@]1(C(=O)O)C[C@@H](Sc2nnc(C(F)(F)F)[nH]2)[C@H]2[C@H](C(=O)O)[C@H]21"
  MEASURED PARAMETER: "EC50"
  DATA VALUE: "0.082 µM"

Next, consider the following compound.
query: Provide measured EC50 value, entry: `N[C@@]1(C(=O)O)C[C@H](Sc2ccccc2)[C@H]2[C@H](C(=O)O)[C@H]21`
result: > 5 µM
